assay: Hepatocyte stability, 1% final DMSO, 2 μM substrate (t1/2^a); assay type: in vitro ADME; conditions: human, cryopreserved hepatocytes, TA with 1% final DMSO, 2 μM substrate, samples at 0, 1, 2, 4 hours; read-out: human hepatocyte t½^a
MEASURED_PARAMETER: half-life at 2 μM

Some solved entries appear below for comparison.
C[C@H](Nc1ncnc(N)c1C#N)c1nc2cccc(Cl)c2c(=O)n1-c1ccccc1 [Y, reference compound]	< 1 h
CCC(Nc1nc(N)nc(N)c1C#N)c1nc2ccccc2c(=O)n1-c1cc(F)cc(F)c1 (single isomer, unassigned) [Compound 36a]	> 10 h
CC(Nc1nc(N)nc(N)c1C#N)c1nc2cccc(F)c2c(=O)n1-c1cc(F)cc(C(F)F)c1 (single isomer, unassigned) [Compound 54a]	> 10 h

I have this molecule here, Cc1cccc2nc(C(C)Nc3nc(N)nc(N)c3C#N)n(-c3cc(F)cc(C#N)c3)c(=O)c12 (single isomer, unassigned) [Compound 24a] , and I need its recorded half-life at 2 μM.
6 to 10 h

Name the recorded half-life at 2 μM for COc1cc(OC)cc(-n2c(C(C)Nc3nc(N)nc(N)c3C#N)nc3cccc(Cl)c3c2=O)c1 (single isomer, unassigned) [Compound 51a] .
3 to 6 h

Can you share its half-life at 2 μM? I mean this molecule: CC(Nc1nc(N)nc(N)c1C#N)c1nc2ccc(F)cc2c(=O)n1-c1cc(F)cc(F)c1 (single isomer, unassigned) [Compound 11a]
> 10 h

---

target: PI3Kδ (Homo sapiens); construct: made in house; assay: Enzymatic activity of PI3K isoforms, TR-FRET assay (PIP3 formation); assay type: biochemical; settings: PI3Kδ; TR-FRET, 2×Km ATP, 10 μM PIP2; read-out: IC50
Reported IC50 by item:

Take a look at these entries with their results.
CC(Nc1nc(N)nc(N)c1C#N)c1nc2cccc(F)c2c(=O)n1-c1cccc(C#N)c1 (single isomer, unassigned) [Compound 38a]	10 to 50 nM
CC(Nc1nc(N)nc(N)c1C#N)c1nc2cccc(Cl)c2c(=O)n1-c1cc(C(F)F)cc(C(F)F)c1 (single isomer, unassigned) [Compound 137a]	1 to 10 nM
CCC(Nc1nc(N)nc(N)c1C#N)c1nc2c(C)ccc(F)c2c(=O)n1-c1cc(F)cc(F)c1 (single isomer, unassigned) [Compound 37a]	10 to 50 nM

Which value of IC50 has been reported for CC(Nc1nc(N)nc(N)c1C#N)c1nc2c(C(F)(F)F)cccc2c(=O)n1-c1cc(F)cc(F)c1 (single isomer, unassigned) [Compound 34a] in the records?
> 50 nM

Using the record for Cc1cccc2c(=O)n(-c3cccc(Cl)c3)c(C(C)Nc3nc(N)nc(N)c3C#N)nc12 (single isomer, unassigned) , report its IC50.
< 1 nM

Which IC50 is reported for this compound? CC(Nc1nc(N)nc(N)c1C#N)c1nc2cccc(C#N)c2c(=O)n1-c1cc(F)cc(C(F)F)c1 (single isomer, unassigned) [Compound 138a]
10 to 50 nM

For the compound CC(Nc1nc(N)nc(N)c1C#N)c1nc2cccc(Cl)c2c(=O)n1-c1cccc(Cl)c1 (single isomer, unassigned) , what IC50 is on record?
< 1 nM

---

target: PI3Kδ (Homo sapiens); construct: made in house; assay: Enzymatic activity of PI3K isoforms, TR-FRET assay (PIP3 formation); format: biochemical; details: PI3Kδ; TR-FRET, 2×Km ATP, 10 μM PIP2; read-out: IC50
pIC50: −log10 of the molar value.
MEASURED_PARAMETER: pIC50

Solved cases (2 shown):
Cc1cccc(-n2c(C(C)Nc3nc(N)nc(N)c3C#N)nc3cccc(Cl)c3c2=O)c1C (single isomer, unassigned) [Compound 202a-2]	7.30 to 8.00
CC(Nc1nc(N)nc(N)c1C#N)c1nc2ccc(F)cc2c(=O)n1-c1ccccc1 (single isomer, unassigned) [Compound 9a]	8.00 to 9.00

// next entry
Consider the molecule shown here: CC(Nc1nc(N)nc(N)c1C#N)c1nc2cccc(Br)c2c(=O)n1-c1cccc(F)c1 (single isomer, unassigned) [Compound 130a] What is its recorded pIC50?
> 9.00

---

biological target: PI3Kδ (Homo sapiens); construct: made in house; assay: Enzymatic activity of PI3K isoforms, TR-FRET assay (PIP3 formation); assay type: biochemical; conditions: PI3Kδ; TR-FRET, 2×Km ATP, 10 μM PIP2; read-out: IC50
pIC50: −log10 of the molar value.
MEASURED_PARAMETER: pIC50

Use the examples below as a reference point.
CCC(Nc1nc(N)nc(N)c1C#N)c1nc2cccc(F)c2c(=O)n1-c1cccc(F)c1 (single isomer, unassigned) [Compound 179a]	8.00 to 9.00
CCC(Nc1nc(N)nc(N)c1C#N)c1nc2ccc(F)cc2c(=O)n1-c1cccc(F)c1 (single isomer, unassigned) [Compound 178a]	8.00 to 9.00
Cc1ccc(F)c2c(=O)n(-c3ccccc3)c(C(C)Nc3nc(N)nc(N)c3C#N)nc12 (single isomer, unassigned) [Compound 61a]	8.00 to 9.00
Cc1ccc(F)cc1-n1c(C(C)Nc2nc(N)nc(N)c2C#N)nc2cccc(Cl)c2c1=O (single isomer, unassigned) [Compound 201a-1]	> 9.00
CC(Nc1nc(N)nc(N)c1C#N)c1nc2cccc(Cl)c2c(=O)n1-c1cc(Cl)cc(Cl)c1 (single isomer, unassigned) [Compound 41a]	8.00 to 9.00

For the molecule shown here, Cc1c(C(F)F)cccc1-n1c(C(C)Nc2nc(N)nc(N)c2C#N)nc2cccc(Cl)c2c1=O (single isomer, unassigned) [Compound 189a-2] , give the reported pIC50.
> 9.00

Can you look up the measured pIC50 of N#Cc1c(N)nc(N)nc1NC(CC(F)(F)F)c1nc2ccc(F)cc2c(=O)n1-c1ccccc1 (single isomer, unassigned) [Compound 132a] for me?
< 7.30

Report pIC50 for COc1cccc(-n2c(C(C)Nc3nc(N)nc(N)c3C#N)nc3cccc(Cl)c3c2=O)c1 (single isomer, unassigned) [Compound 185a] please.
> 9.00

---

target: PI3Kδ (Homo sapiens, UniProt O00329); construct: made in house; assay: Enzymatic activity of PI3K isoforms, TR-FRET assay (PIP3 formation); type: biochemical; settings: PI3Kδ; TR-FRET, 2×Km ATP, 10 μM PIP2; read-out: IC50
Sequence (O00329 whole entry, canonical isoform): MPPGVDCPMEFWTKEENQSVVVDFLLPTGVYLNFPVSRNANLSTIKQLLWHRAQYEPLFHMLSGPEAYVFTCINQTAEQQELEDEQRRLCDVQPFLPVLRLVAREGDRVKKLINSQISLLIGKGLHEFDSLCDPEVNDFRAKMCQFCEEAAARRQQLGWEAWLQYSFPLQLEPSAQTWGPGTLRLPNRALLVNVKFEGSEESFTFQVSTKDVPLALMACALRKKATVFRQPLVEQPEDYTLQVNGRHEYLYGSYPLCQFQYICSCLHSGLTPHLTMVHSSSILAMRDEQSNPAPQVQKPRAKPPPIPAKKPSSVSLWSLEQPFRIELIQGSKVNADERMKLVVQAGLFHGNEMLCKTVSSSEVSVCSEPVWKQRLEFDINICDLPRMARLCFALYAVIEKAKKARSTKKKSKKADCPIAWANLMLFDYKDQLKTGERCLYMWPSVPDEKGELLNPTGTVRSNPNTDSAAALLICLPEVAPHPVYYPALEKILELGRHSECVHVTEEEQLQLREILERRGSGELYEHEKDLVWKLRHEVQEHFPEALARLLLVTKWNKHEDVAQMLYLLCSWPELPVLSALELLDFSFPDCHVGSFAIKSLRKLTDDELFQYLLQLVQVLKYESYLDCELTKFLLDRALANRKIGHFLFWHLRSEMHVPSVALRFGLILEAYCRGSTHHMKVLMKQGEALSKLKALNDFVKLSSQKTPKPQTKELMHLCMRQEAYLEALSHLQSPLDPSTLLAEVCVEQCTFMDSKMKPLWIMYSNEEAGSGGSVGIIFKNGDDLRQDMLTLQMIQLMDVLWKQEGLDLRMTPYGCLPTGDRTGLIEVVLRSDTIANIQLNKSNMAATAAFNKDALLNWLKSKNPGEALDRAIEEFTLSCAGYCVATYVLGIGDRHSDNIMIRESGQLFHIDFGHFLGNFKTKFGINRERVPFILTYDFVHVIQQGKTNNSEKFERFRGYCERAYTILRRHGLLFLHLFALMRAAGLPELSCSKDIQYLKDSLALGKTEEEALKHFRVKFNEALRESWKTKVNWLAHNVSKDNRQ
Sequence (P27986 whole entry partner, canonical isoform): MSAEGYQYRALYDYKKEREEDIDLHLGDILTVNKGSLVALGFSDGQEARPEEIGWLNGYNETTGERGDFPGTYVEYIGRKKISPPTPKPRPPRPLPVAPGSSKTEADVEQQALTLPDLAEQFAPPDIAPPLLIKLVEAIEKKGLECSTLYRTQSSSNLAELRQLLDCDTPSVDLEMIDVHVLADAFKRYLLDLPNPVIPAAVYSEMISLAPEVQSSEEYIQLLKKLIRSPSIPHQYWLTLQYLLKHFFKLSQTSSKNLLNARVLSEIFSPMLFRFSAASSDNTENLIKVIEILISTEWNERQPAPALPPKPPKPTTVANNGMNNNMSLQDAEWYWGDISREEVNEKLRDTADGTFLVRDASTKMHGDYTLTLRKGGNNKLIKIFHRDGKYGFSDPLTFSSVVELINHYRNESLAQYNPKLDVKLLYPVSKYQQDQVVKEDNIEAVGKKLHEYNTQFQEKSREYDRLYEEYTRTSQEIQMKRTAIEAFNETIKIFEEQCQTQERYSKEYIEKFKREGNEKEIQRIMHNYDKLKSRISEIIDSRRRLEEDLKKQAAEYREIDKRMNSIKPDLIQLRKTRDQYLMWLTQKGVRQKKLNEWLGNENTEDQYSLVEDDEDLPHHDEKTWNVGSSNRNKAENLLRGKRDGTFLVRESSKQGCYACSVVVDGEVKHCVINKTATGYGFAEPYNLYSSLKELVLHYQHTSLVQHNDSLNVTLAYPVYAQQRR
IC50 values by entry

COc1cc(F)cc(-n2c(C(C)Nc3nc(N)nc(N)c3C#N)nc3cccc(Cl)c3c2=O)c1 (single isomer, unassigned) [Compound 205a]	1 to 10 nM
CC(Nc1nc(N)nc(N)c1C#N)c1nc2cccc(F)c2c(=O)n1-c1cc(F)cc(C(F)(F)F)c1 (single isomer, unassigned) [Compound 33a]	> 50 nM
CCC(Nc1nc(N)nc(N)c1C#N)c1nc2cccc(C)c2c(=O)n1-c1cc(F)cc(F)c1 (single isomer, unassigned) [Compound 19a]	< 1 nM
CC(Nc1nc(N)nc(N)c1C#N)c1nc2c(Cl)cc(F)cc2c(=O)n1-c1cc(F)cc(F)c1 (single isomer, unassigned) [Compound 89a]	1 to 10 nM
CC(Nc1nc(N)nc(N)c1C#N)c1nc2c(C#N)cc(F)cc2c(=O)n1-c1cc(F)cc(F)c1 (single isomer, unassigned) [Compound 161a]	10 to 50 nM

Given the entry CC(Nc1nc(N)nc(N)c1C#N)c1nc2ccc(F)c(Cl)c2c(=O)n1-c1cc(F)cc(F)c1 (single isomer, unassigned) [Compound 140a] , report its measured IC50.
1 to 10 nM

Requested read-out: IC50. Entry: CCC(Nc1nc(N)nc(N)c1C#N)c1nc2ccccc2c(=O)n1-c1cc(F)cc(F)c1 (single isomer, unassigned) [Compound 36a]
10 to 50 nM

// IC50 lookup, key: CC(Nc1nc(N)nc(N)c1C#N)c1nc2c(F)ccc(Cl)c2c(=O)n1-c1cccc(C#N)c1 (single isomer, unassigned) [Compound 181a]
1 to 10 nM

Which IC50 value belongs to CC(Nc1nc(N)nc(N)c1C(N)=O)c1nc2cccc(Cl)c2c(=O)n1-c1cccc(C(F)F)c1 (single isomer, unassigned) [Compound 100a] ?
1 to 10 nM

Query: IC50; subject: CCC(Nc1nc(N)nc(N)c1C#N)c1nc2cccc(C(F)F)c2c(=O)n1-c1cc(F)cc(F)c1 (single isomer, unassigned) [Compound 53a]
1 to 10 nM

For the compound COc1ccc(C)c(-n2c(C(C)Nc3nc(N)nc(N)c3C#N)nc3cccc(Cl)c3c2=O)c1 (single isomer, unassigned) [Compound 187a-1] , what IC50 is on record?
1 to 10 nM

Which IC50 value is on record for CCCC(Nc1nc(N)nc(N)c1C#N)c1nc2cccc(F)c2c(=O)n1-c1cc(F)cc(F)c1 (single isomer, unassigned) [Compound 175a] ?
1 to 10 nM
